Target: SERCA2a (Sus scrofa)
Construct: Cardiac SR vesicles were isolated from fresh porcine left ventricular tissue using differential centrifugation; from tissue; host or cells: porcine left ventricular tissue (cardiac SR vesicles)
Sequence (P11607 1-997 isoform P11607-2): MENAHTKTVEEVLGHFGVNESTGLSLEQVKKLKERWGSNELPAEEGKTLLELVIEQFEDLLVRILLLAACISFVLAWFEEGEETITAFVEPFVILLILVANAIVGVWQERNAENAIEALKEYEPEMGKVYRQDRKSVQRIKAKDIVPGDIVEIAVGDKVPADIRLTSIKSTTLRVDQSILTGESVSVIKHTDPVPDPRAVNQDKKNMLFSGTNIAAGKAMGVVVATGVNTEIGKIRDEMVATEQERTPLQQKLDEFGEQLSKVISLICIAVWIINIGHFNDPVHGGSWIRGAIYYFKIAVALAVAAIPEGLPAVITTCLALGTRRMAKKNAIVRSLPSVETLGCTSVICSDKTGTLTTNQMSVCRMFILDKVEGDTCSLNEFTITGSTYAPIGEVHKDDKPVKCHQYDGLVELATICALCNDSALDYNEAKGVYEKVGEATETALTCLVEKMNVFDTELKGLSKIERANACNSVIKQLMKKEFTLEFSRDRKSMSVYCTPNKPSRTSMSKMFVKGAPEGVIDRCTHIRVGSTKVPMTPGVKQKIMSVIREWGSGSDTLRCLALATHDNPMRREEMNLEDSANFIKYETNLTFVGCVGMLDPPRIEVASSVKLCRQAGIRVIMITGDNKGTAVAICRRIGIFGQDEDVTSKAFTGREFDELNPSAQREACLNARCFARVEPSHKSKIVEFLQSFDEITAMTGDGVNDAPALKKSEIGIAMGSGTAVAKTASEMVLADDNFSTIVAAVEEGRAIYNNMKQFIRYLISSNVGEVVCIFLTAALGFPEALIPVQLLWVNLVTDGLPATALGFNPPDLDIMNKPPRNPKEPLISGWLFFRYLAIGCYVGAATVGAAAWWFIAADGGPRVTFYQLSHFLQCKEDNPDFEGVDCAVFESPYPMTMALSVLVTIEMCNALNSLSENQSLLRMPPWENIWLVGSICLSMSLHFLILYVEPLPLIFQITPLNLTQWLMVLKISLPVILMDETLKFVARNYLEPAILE
Assay: Oxalate-supported Fluo-4 Ca2+-uptake (Ca2+-transport) assay in pig cardiac SR (pCSR) vesicles
Type: biochemical
Settings: [Ca2+]MAX, size of decrease
Description: Cardiac SR vesicles were isolated from fresh porcine left ventricular tissue using differential centrifugation of the homogenized tissue as previously described. The SR vesicles were flash-frozen and stored at − 80 °C until needed. […] SERCA2a activity, F (rate of ATP hydrolysis or Ca^2+ uptake), was measured at varying pCa and varying compound concentration. […]
propertyName: Decrease (inhibition) of Ca2+-uptake at [Ca2+]MAX (%)
Use % as the unit, but write only the number.

Cc1cnc(C)c(N2CCN(C(=O)c3cc(COc4ccc5ncccc5c4)on3)CC2)n1 : 10
O=C(c1cc(COc2ccc3c(c2)CCCC3)on1)N1CCC(c2ccncc2)CC1 : 20

Decrease (inhibition) of Ca2+-uptake at [Ca2+]MAX for "COc1ccc(Cc2noc(CN3CCN(c4nc5ccccc5s4)CC3)n2)cc1OC" ? 2

Decrease (inhibition) of Ca2+-uptake at [Ca2+]MAX for "O=C(c1ccc(-c2ccc(O)cc2)nc1)N1CCC(CCc2ccccc2)CC1" ? 21
